# Tested on: pigweed
# PROTOCOL DESCRIPTION: Test C preemergence
# Type: in vivo, Amaranthus retroflexus
# SETUP CONDITIONS: preemergence, 250 g ai/ha; scale 0 to 100, 0 is no effect, 100 is complete control
Measured Pigweed plant response rating by item
# respond with the number and nothing more

Guide cases for Pigweed plant response rating, answers given:
O=C(NCC(F)(F)F)c1cc(CCF)n(Cc2ccnc(C(F)(F)F)c2)n1 ... 100
CCOc1cc(C(=O)NOC(C)C)nn1Cc1ccnc(C(F)(F)F)c1 ... 98
CCCNC(=O)c1cc(OCC)n(Cc2ccnc(OC(F)F)c2)n1 ... 100
O=C(NC1CC1)c1cc(CCCl)n(Cc2ccnc(C(F)(F)F)c2)n1 ... 100
CCCc1cc(C(=O)NC2CC2)nn1Cc1ccnc(OC(F)F)c1 ... 100

IN: Name the recorded Pigweed plant response rating of the item CCc1cc(C(=O)NCC(F)(F)F)nn1Cc1ccnc(Br)c1 in your answer.
OUT: 100

IN: Indicate its recorded Pigweed plant response rating; the compound in question is CCCc1cc(C(=O)NC(C)C)nn1Cc1cc(C(F)(F)F)nn1C
OUT: 98

* * *

# Tested on: corn
# PROTOCOL DESCRIPTION: Test C postemergence
# Assay type: in vivo, Zea mays
# SETUP CONDITIONS: postemergence; 125 g ai/ha; scale 0 to 100, 0 no effect, 100 complete control
# Text: […]
Each record here notes measured Plant response rating, Corn.
// print number alone

Solved cases below.
CCOc1cc(C(=O)NCC(F)(F)F)nn1Cc1ccnc(OC(F)F)c1 [Compound 128] ... 10
CCc1cc(C(=O)NOC(C)C)nn1Cc1cccc(OC(F)(F)F)c1 [Compound 70] ... 45

IN: Tell me Plant response rating, Corn reported for CCc1cc(C(=O)NCC(F)(F)F)nn1Cc1nc(C(F)(F)F)nn1C [Compound 107]
OUT: 5

IN: Supply Plant response rating, Corn value. Item: CCc1cc(C(=O)NOC(C)C)nn1Cc1ccnc(OC(F)F)c1 [Compound 126]
OUT: 35

IN: Could you please provide reported Plant response rating, Corn for CCCc1cc(C(=O)NC(C)C)nn1Cc1cc(C(F)(F)F)nn1C [Compound 201] ? Thanks!
OUT: 15

* * *

# Tested on: soybean
# PROTOCOL DESCRIPTION: Test C preemergence
# Assay type: in vivo, Glycine max
# SETUP CONDITIONS: preemergence, 125 g ai/ha; scale 0 to 100, 0 is no effect, 100 is complete control
Soybean plant response rating values by entry
// no unit string in output, number only

Example entries and their recorded answers appear below.
Cc1cc(C(=O)NCC(F)(F)F)nn1Cc1ccnc(C(F)(F)F)c1 ... 85
CCc1cc(C(=O)NOC(C)C)nn1Cc1ccnc(OC(F)F)c1 ... 75
CCc1cc(C(=O)NCC(F)(F)F)nn1Cc1nc(C(F)(F)F)nn1C ... 95
CCCNC(=O)c1cc(CC)n(Cc2nc(C(F)(F)F)nn2C)n1 ... 98

Attention now turns to another entry.
IN: # return Soybean plant response rating for CCc1cc(C(=O)NCC(F)(F)F)nn1Cc1cc(C(F)(F)F)nn1C , test system: soybean
OUT: 95

* * *

# System: nutsedge, yellow
# PROTOCOL DESCRIPTION: Test C preemergence
# Format: in vivo, Cyperus esculentus
# SETUP CONDITIONS: preemergence, 62 g ai/ha; scale 0 to 100 (0 no effect, 100 complete control), 13 to 15 days
QUANTITY: Nutsedge, Yellow plant response rating

Answered examples (9):
CCNC(=O)c1cc(CC)n(Cc2cc(C(F)(F)F)nn2C)n1 [Compound 154] ... 15
CCc1cc(C(=O)NCC(F)(F)F)nn1Cc1ccnc(SC(F)(F)F)c1 [Compound 214] ... 55
CCCc1cc(C(=O)NC2CC2)nn1Cc1ccnc(OC(F)F)c1 [Compound 205] ... 65
CCCNC(=O)c1cc(CCF)n(Cc2ccnc(C(F)(F)F)c2)n1 [Compound 177] ... 60
CCc1cc(C(=O)NCC(F)(F)F)nn1Cc1ccnc(Br)c1 [Compound 224] ... 80
CCCc1cc(C(=O)NCC(F)(F)F)nn1Cc1ccnc(OC(F)F)c1 [Compound 127] ... 50
CCCc1cc(C(=O)NC(C)C)nn1Cc1ccnc(C(F)(F)F)c1 [Compound 186] ... 60
CCCc1cc(C(=O)NC(C)C)nn1Cc1cc(C(F)(F)F)nn1C [Compound 201] ... 20
CCNC(=O)c1cc(CCF)n(Cc2ccnc(C(F)(F)F)c2)n1 [Compound 178] ... 15

IN: Indicate its recorded Nutsedge, Yellow plant response rating; the compound in question is CCOc1cc(C(=O)NOC(C)C)nn1Cc1ccnc(C(F)(F)F)c1 [Compound 153]
OUT: 75
